Assay: Selectivity index, ratio of CC50 for cytotoxicity against Balb/c mouse peritoneal macrophages to IC50 for antileishmanial activity against Leishmania amazonensis MHOM/BR/77/LTB0016 promastigotes
Assay type: toxicity
Conditions: read-out: Ratio CC50/IC50
metric-name: selectivity ratio
Respond using a number only.

compound | recorded-value
CC1(Cc2ccc(-c3ccccc3)c(F)c2)CC(S(=O)(=O)c2ccc(F)cc2)=C(c2ccc(/C(N)=N/O)cc2)O1 (stereo not drawn) | 2
COc1cc(CC2(C)CC(S(=O)(=O)c3ccc(F)cc3)=C(c3ccc(/C(N)=N/O)cc3)O2)cc(OC)c1OC (stereo not drawn) | 2
Cc1cccc(CC2(C)CC(S(=O)(=O)c3ccc(F)cc3)=C(c3ccc(/C(N)=N/O)cc3)O2)c1 (stereo not drawn) | 19.9
CC1(Cc2ccccc2Br)CC(S(=O)(=O)c2ccc(F)cc2)=C(c2ccc(/C(N)=N/O)cc2)O1 (stereo not drawn) | 12
CC1(Cc2cccc(C(F)(F)F)c2)CC(S(=O)(=O)c2ccc(F)cc2)=C(c2ccc(/C(N)=N/O)cc2)O1 (stereo not drawn) | 7.4

selectivity ratio for CC1(Cc2ccc(-c3ccccc3)cc2)CC(S(=O)(=O)c2ccc(F)cc2)=C(c2ccc(/C(N)=N/O)cc2)O1 (stereo not drawn) is 2.3

selectivity ratio for CC1(Cc2ccccc2)CC(S(=O)(=O)c2ccc(F)cc2)=C(c2ccc(/C(N)=N/O)cc2)O1 (stereo not drawn) is 18.9
